Cited source for all entries: PubChem BioAssay

biological target: Pro-neuregulin-1, membrane-bound isoform (Homo sapiens) (UniProt Q02297); experiment: NRG1 binders on small-molecule microarrays, primary screen, psychiatric disease protein project, biochemical, small-molecule microarray, fluorescence 635/667 (AID 1075); settings: NRG1 binding, 635 nm fluorescence, higher = more signal;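 note: score combines 667 nm spot fluorescence with signal to noise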
Sequence (Q02297 whole entry, looked up, canonical isoform): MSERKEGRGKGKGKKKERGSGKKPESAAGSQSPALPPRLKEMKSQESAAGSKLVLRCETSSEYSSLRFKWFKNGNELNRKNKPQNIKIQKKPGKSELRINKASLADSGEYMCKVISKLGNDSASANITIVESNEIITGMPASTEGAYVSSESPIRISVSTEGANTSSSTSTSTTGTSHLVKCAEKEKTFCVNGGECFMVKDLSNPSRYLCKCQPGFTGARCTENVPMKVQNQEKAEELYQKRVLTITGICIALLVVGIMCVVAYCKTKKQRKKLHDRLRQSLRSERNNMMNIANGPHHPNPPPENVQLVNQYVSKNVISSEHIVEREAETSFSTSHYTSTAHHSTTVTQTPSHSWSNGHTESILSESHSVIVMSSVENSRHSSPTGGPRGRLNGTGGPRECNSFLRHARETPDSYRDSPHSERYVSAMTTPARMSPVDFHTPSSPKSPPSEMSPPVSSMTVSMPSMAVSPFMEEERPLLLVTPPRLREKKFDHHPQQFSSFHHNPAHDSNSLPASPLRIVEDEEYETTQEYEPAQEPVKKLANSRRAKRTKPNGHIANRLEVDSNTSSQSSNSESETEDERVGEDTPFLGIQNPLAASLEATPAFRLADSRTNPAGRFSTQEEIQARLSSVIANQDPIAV
composite z-score vs 0.2: at or above is condition met, below is condition not met.

[
  {
    "MOLECULE": "CON=C(C)CCC(=O)OC[C@H]1O[C@H](C#Cc2ccccc2)C=C[C@@H]1Oc1ccc(C)cc1",
    "ANSWER_LABEL": "condition not met"
  },
  {
    "MOLECULE": "COC(=O)C1=C(C)N(Cc2ccccc2)C2=C3C(=O)OCC[C@@H]3[C@@](O)(C(=O)OC)C(=O)N2[C@@H]1c1ccccc1",
    "ANSWER_LABEL": "condition not met"
  },
  {
    "MOLECULE": "C#CCCCON=C1C[C@@H](O)[C@@H](O)[C@@H]2[C@@H]3C(=O)N([C@@H](C)c4ccccc4)C(=O)[C@@H]3CC[C@@H]12",
    "ANSWER_LABEL": "condition not met"
  },
  {
    "MOLECULE": "COc1ccc(O[C@H]2C=C[C@@H](c3ccccc3)O[C@@H]2CON=C(C)CCN2CCCc3nc(C)c(C)cc32)cc1",
    "ANSWER_LABEL": "condition met"
  },
  {
    "MOLECULE": "CCc1cc2c(nc1CC)CCN(CCC(C)=NOC(C)CN1CCCCc3nc(C)c(C)cc31)C2 (stereo unspecified)",
    "ANSWER_LABEL": "condition met"
  },
  {
    "MOLECULE": "CCOC(=O)[C@H](CC(C)C)NC(=O)CCC1CC(OC(=O)NCc2ccc3c(c2)OCO3)CC2(CCCC(COC(=O)NCCc3ccc(Cl)cc3)O2)O1 (stereo partly specified)",
    "ANSWER_LABEL": "condition met"
  },
  {
    "MOLECULE": "CC(=O)OC[C@H]1O[C@@H](ON=C(C)C)[C@H](OC(C)=O)[C@@H](OC(C)=O)[C@@H]1OC(C)=O",
    "ANSWER_LABEL": "condition not met"
  },
  {
    "MOLECULE": "CCOC(=O)[C@H](CC(C)C)NC(=O)CCC1CC(OC(=O)NCCc2ccc(F)cc2)CC2(CCCC(COC(=O)NCc3cccc(C(F)(F)F)c3)O2)O1 (stereo partly specified)",
    "ANSWER_LABEL": "condition met"
  },
  {
    "MOLECULE": "CCOC(=O)[C@H](CC(C)C)NC(=O)CCC1CC(OC(=O)NCc2ccc3c(c2)OCO3)CC2(CCCC(COC(=O)NCCC(C)C)O2)O1 (stereo partly specified)",
    "ANSWER_LABEL": "condition not met"
  },
  {
    "MOLECULE": "COC(=O)CC=C[C@@H](C)[C@@H](C=NOC[C@@H](O)COCc1ccco1)NS(=O)(=O)c1ccc(C)cc1",
    "ANSWER_LABEL": "condition not met"
  },
  {
    "MOLECULE": "CC1(C)O[C@H]2OC([C@H](O)CON3C(=O)c4ccccc4C3=O)[C@H](O)[C@H]2O1 (stereo partly specified)",
    "ANSWER_LABEL": "condition not met"
  },
  {
    "MOLECULE": "C[C@]12CCC3c4ccc(OCC5CO5)cc4CCC3C1CC[C@@H]2O (stereo partly specified)",
    "ANSWER_LABEL": "condition met"
  },
  {
    "MOLECULE": "CC(CCN1CCCc2nc(C)c(C)cc21)=NO[C@H](C)c1cn([C@@H]2COC[C@H]2O)nn1",
    "ANSWER_LABEL": "condition not met"
  },
  {
    "MOLECULE": "CCOC(=O)[C@H](Cc1ccccc1)NC(=O)CCC1CC(OC(=O)NCc2ccc3c(c2)OCO3)CC2(CCCC(COC(=O)NCCOC)O2)O1 (stereo partly specified)",
    "ANSWER_LABEL": "condition met"
  },
  {
    "MOLECULE": "COC(=O)[C@H](C)NC(=O)CCC1CC(OC(=O)NCc2cccc3ccccc23)CC2(CCCC(COC(=O)NCCC(C)C)O2)O1 (stereo partly specified)",
    "ANSWER_LABEL": "condition met"
  },
  {
    "MOLECULE": "O=C1CCCC=C1C(O)COCc1ccccc1 (stereo unspecified)",
    "ANSWER_LABEL": "condition not met"
  },
  {
    "MOLECULE": "CO[C@H]1COC(=O)[C@H](C)COC(=O)[C@@H](OCc2ccccc2)C=C[C@@H]1C",
    "ANSWER_LABEL": "condition not met"
  },
  {
    "MOLECULE": "CC(=O)OC[C@H]1O[C@H](CC=NOC(C)CN2CCCCc3nc(C)c(C)cc32)C=C[C@@H]1OC(C)=O (stereo partly specified)",
    "ANSWER_LABEL": "condition not met"
  },
  {
    "MOLECULE": "CC(=O)OC[C@H]1O[C@H](CC=NOC(C)CN2CCCc3nc(C)c(C)cc32)C=C[C@@H]1OC(C)=O (stereo partly specified)",
    "ANSWER_LABEL": "condition not met"
  },
  {
    "MOLECULE": "CC(C)[C@@H](OCc1ccccc1)[C@H](C)CON=C1[C@H]2CCn3c(=O)n(-c4ccccc4)c(=O)n3[C@H]2[C@H](O)[C@@H]2O[C@H]12",
    "ANSWER_LABEL": "condition met"
  },
  {
    "MOLECULE": "O=C1C[C@H](c2ccccc2)[C@H](c2ccc(Br)cc2)O1",
    "ANSWER_LABEL": "condition not met"
  },
  {
    "MOLECULE": "COc1ccc2c(c1)O[C@@H](c1cccc(C(F)(F)F)c1)[C@H](O)C2=O",
    "ANSWER_LABEL": "condition not met"
  },
  {
    "MOLECULE": "CCOC(=O)CCN1C(=O)[C@H]2[C@H]3[C@H](O)[C@H](O)CC(=NOCC=C(C)CCC=C(C)C)[C@H]3CC[C@H]2C1=O",
    "ANSWER_LABEL": "condition not met"
  },
  {
    "MOLECULE": "COC(=O)CC=C[C@@H](C)[C@@H](C=NOC(C)CN1CCCc2nc(C)c(C)cc21)NS(=O)(=O)c1ccc(C)cc1 (stereo partly specified)",
    "ANSWER_LABEL": "condition met"
  },
  {
    "MOLECULE": "COC(=O)[C@@H]1CC[C@H](C)[C@@H](c2ccc(Br)cc2)N1C[C@H](O)CN=[N+]=[N-]",
    "ANSWER_LABEL": "condition met"
  },
  {
    "MOLECULE": "CC(=O)OC[C@H]1O[C@H](CC=NOCC[C@@H]2C=C[C@H](OC(C)=O)[C@@H](COC(C)=O)O2)C=C[C@@H]1OC(C)=O",
    "ANSWER_LABEL": "condition not met"
  },
  {
    "MOLECULE": "CC(C)[C@@H](OCc1ccccc1)[C@H](C)C=NOC[C@@H](O)[C@H]1O[C@@H]2OC(C)(C)O[C@@H]2[C@H]1O",
    "ANSWER_LABEL": "condition not met"
  },
  {
    "MOLECULE": "COC(=O)[C@H](C)NC(=O)CC=C[C@@H](C)[C@@H]1C=C[C@H](O)[C@@H](CO)O1",
    "ANSWER_LABEL": "condition not met"
  },
  {
    "MOLECULE": "CC(C)=CCCC(C)=CCON=C1C[C@@H](O)[C@@H](O)[C@@H]2[C@@H]3C(=O)N(C4CCCCC4)C(=O)[C@@H]3CC[C@H]12",
    "ANSWER_LABEL": "condition met"
  },
  {
    "MOLECULE": "CCN1C(=O)[C@H]2[C@H]3[C@H](O)[C@H](O)CC(=NO[C@@H](C)c4cc(-c5c(C)cc(C)cc5C)no4)[C@@H]3CC[C@H]2C1=O",
    "ANSWER_LABEL": "condition met"
  }
]
